Source: paper PMC5607274

Biological target: human recombinant Yes [a.a. 2–543 (end)] (Homo sapiens, UniProt P07947)
Construct: human recombinant Yes [a.a; 2–543 (end)]; purchased BPS Bioscience 40488
Sequence (P07947 2-543): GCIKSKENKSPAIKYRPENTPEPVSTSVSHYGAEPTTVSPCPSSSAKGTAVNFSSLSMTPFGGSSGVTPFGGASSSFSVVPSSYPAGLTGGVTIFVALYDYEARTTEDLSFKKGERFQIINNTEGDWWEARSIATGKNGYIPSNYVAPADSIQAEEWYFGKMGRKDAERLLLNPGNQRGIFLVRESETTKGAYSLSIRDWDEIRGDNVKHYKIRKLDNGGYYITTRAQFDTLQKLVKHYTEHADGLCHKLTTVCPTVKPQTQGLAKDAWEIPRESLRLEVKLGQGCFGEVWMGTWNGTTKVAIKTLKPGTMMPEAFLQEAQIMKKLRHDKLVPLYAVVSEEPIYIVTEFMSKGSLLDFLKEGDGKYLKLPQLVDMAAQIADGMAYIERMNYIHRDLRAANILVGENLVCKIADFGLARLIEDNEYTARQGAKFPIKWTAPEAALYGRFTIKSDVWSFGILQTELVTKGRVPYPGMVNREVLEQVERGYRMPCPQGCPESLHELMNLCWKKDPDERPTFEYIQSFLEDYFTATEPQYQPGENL
Assay: ADP-Glo kinase assay, inhibition rates of Yes phosphorylation activity (first and second screening)
Type: biochemical
Settings: first screening; mean of n = 4 wells; 10 μmol L−1 compound
endpointName: First screening IR (inhibition rate) (%)

A selection of reference data follows.
[
  {
    "molecule": "CCN(C(=O)CN(C)CC(=O)Nc1ccc(Cl)cc1)c1cccc2ccccc12 [Compound Z46378572]",
    "First screening IR (inhibition rate) (%)": 33
  },
  {
    "molecule": "Cc1cccc(N2CCN(C(=O)C3CCN(C(=O)C4CC4)CC3)CC2)c1C [Compound Z26849648]",
    "First screening IR (inhibition rate) (%)": -2
  },
  {
    "molecule": "CCOc1ccc(CCNC(=O)c2cc3ccccc3[nH]2)cc1OCC [Compound Z28450151]",
    "First screening IR (inhibition rate) (%)": -5
  },
  {
    "molecule": "Cc1cc(N(Cc2cn3ccsc3n2)C(C)C)ccc1C(N)=O [Compound Z1127155490]",
    "First screening IR (inhibition rate) (%)": -7
  },
  {
    "molecule": "CCN(CC)Cc1ccc(C(=O)N2CCC3(C2)NC(=O)NC3=O)cc1 (centres unmarked) [Compound Z1233805260]",
    "First screening IR (inhibition rate) (%)": 5
  }
]

(a) Cc1c(C#N)c(NC(=O)CN2CCN(Cc3nc4ccccc4s3)CC2)n(CC2CCCO2)c1C (centres unmarked) [Compound Z125608446]
(b) Cn1ccc2c(NC(=O)NCc3ccnc(N4CCCC4)c3)cccc21 [Compound Z1040576806]
[in] # compare First screening IR (inhibition rate) for a vs b ; return the one with the smaller value When you have decided, please share the label of that item.
[out] b
(b: -8%, a: 12%)

====

Target: human recombinant Yes [a.a. 2–543 (end)] (Homo sapiens)
Construct: human recombinant Yes [a.a; 2–543 (end)]; purchased BPS Bioscience 40488
Assay: ADP-Glo kinase assay, inhibition rates of Yes phosphorylation activity (first and second screening)
Type: biochemical
Conditions: first screening; mean of n = 4 wells; 10 μmol L−1 compound
endpointName: First screening IR (inhibition rate) (%)

A selection of reference data follows.
[
  {
    "compound": "FC(F)(F)c1ccnc(Nc2cn[nH]c2)n1 [Compound Z397745198]",
    "resultValue": 2
  },
  {
    "compound": "CN(C)S(=O)(=O)CCCS(=O)(=O)N(C)C1CCC1 [Compound Z1720728610]",
    "resultValue": -6
  }
]

(P) CC(NCc1ccc(C(=O)Nc2ccccc2)cc1)c1ccc2c(c1)OCCO2 (stereo not shown) [Compound Z89008298]
(Q) N#Cc1c(CN2CCN(S(=O)(=O)c3cc(Cl)ccc3Cl)CC2)cn2ccccc12 [Compound Z220381008]
[in] # compare First screening IR (inhibition rate) for P vs Q ; return the one with the smaller value When you have decided, please share the label of that item.
[out] P

====

Target: human recombinant Yes [a.a. 2–543 (end)] (Homo sapiens, UniProt P07947)
Construct: human recombinant Yes [a.a; 2–543 (end)]; purchased BPS Bioscience 40488
Assay: ADP-Glo kinase assay, inhibition rates of Yes phosphorylation activity (first and second screening)
Format: biochemical
Conditions: first screening; mean of n = 4 wells; 10 μmol L−1 compound
endpointName: First screening IR (inhibition rate) (%)

[
  {
    "smiles": "CCn1ncc2c(C(=O)NCc3cccc(OC)c3)cc(-c3ccccc3)nc21",
    "endpointName": "First screening IR (inhibition rate)",
    "resultValue": 6
  }
]

(a) CN(C1CCCCCC1)S(=O)(=O)c1cccc(S(C)(=O)=O)c1
(b) CS(=O)(=O)c1cccc(S(N)(=O)=O)c1
(c) CC(C)(C)OC(=O)N1CCCc2cc(NC(=O)c3cnc[nH]3)ccc21
(d) N#Cc1ccc(C(=O)Nc2nc(-c3ccc(F)c(F)c3)cs2)cc1
[in] Descending sort on First screening IR (inhibition rate) required. Reply: labels, ordered per the request.
[out] d, b, c, a
(d: 16%, b: 5%, c: 1%, a: -7%)

====

Molecular target: human recombinant Yes [a.a. 2–543 (end)] (Homo sapiens)
Construct: human recombinant Yes [a.a; 2–543 (end)]; purchased BPS Bioscience 40488
Test: ADP-Glo kinase assay, inhibition rates of Yes phosphorylation activity (first and second screening)
Format: biochemical
Conditions: first screening; mean of n = 4 wells; 10 μmol L−1 compound
Protocol: All inhibitory assays of the phosphorylation activity of Yes were performed in accordance with the Promega Technical Manual for the ADP-Glo™ Kinase Assay (Fitchburg, WI, USA. Catalog number: V9102). The human recombinant Yes [a.a. […] The screening was conducted in three steps consisting of the first screening, the second screening, and the IC50 determination, as can be illustrated in Fig. 1b. First, we determined the inhibition rates of the 1,991 compounds. […]
endpointName: First screening IR (inhibition rate) (%)

[
  {
    "compound": "FC(F)(F)c1ccnc(Nc2ccc3nc(C4CC4)sc3c2)n1",
    "resultUnits": "%",
    "First screening IR (inhibition rate)": -3
  }
]

(P) CNc1nc(NC2CCOC2c2ccc(F)c(F)c2)ncc1Br (stereo not shown)
(Q) O=C(/C=C/c1ccco1)Nc1cc(-c2cccc([N+](=O)[O-])c2)sc1C(=O)O
[in] Hi there! Just curious which has the higher First screening IR (inhibition rate) between P and Q . When you have decided, please share the label of that item.
[out] P

(A) CN(C(=O)c1ccc2c(c1)CC(c1ccccc1)OC2=O)c1nc2ccccc2s1 (stereo not shown)
(B) N#Cc1ccccc1S(=O)(=O)N1CCN(C(=O)/C=C/c2ccc3c(c2)OCCCO3)CC1
[in] Hi there! Just curious which has the higher First screening IR (inhibition rate) between A and B . When you have decided, please share the label of that item.
[out] B
(B: 36%, A: -4%)

(A) Cc1c(-c2ccc(O)cc2)nc2ccc(Cl)cc2c1-c1ccccc1F.Cl
(B) CCN1CCN(c2cc(CNC(=O)c3cn(-c4ccccc4)nc3-c3ccc(OC)cc3)ccn2)CC1
(C) CCN(CC)S(=O)(=O)c1ccc(OC)c(NC(=S)NCc2ccccc2)c1
(D) CCS(=O)(=O)N1CCN(S(=O)(=O)C2CCS(=O)(=O)C2)CC1 (stereo not shown)
(E) CC1CCN(Cc2ncc(-c3cccc(Cl)c3)o2)CC1n1ccnc1 (stereo not shown)
[in] Descending sort on First screening IR (inhibition rate) required. Reply: labels, ordered per the request.
[out] E, C, A, D, B
(E: 33%, C: 13%, A: 3%, D: 2%, B: -5%)

(1) Cl.Oc1ccc(-c2cc(-c3ccccc3Cl)c3cc(Cl)ccc3n2)cc1
(2) COc1cc(/C=C2/CC(C)Cc3c2nc2ccccc2c3C(=O)O)ccc1O (stereo not shown)
[in] Hi there! Just curious which has the higher First screening IR (inhibition rate) between 1 and 2 . When you have decided, please share the label of that item.
[out] 1
(1: 10%, 2: -4%)

====

Molecular target: human recombinant Yes [a.a. 2–543 (end)] (Homo sapiens)
Construct: human recombinant Yes [a.a; 2–543 (end)]; purchased BPS Bioscience 40488
Experiment: ADP-Glo kinase assay, inhibition rates of Yes phosphorylation activity (first and second screening)
Type: biochemical
Settings: first screening; mean of n = 4 wells; 10 μmol L−1 compound
endpointName: First screening IR (inhibition rate) (%)

A selection of reference data follows.
[
  {
    "molecule": "O=C(NCC(Cc1ccccc1)C(=O)O)c1ccc(-n2ccnc2)cc1 (stereo not drawn)",
    "First screening IR (inhibition rate), %": 15
  },
  {
    "molecule": "CCn1ncc2c(C(=O)N(C)Cc3ccc(SC)cc3)cc(-c3ccccc3)nc21",
    "First screening IR (inhibition rate), %": -5
  }
]

(1) O=C(O)c1cccc(/C=C/c2ccnnc2)c1
(2) CC(NC(=O)Nc1ccc(F)cc1F)c1ccc(-n2cncn2)cc1 (stereo not drawn)
(3) CC1CCC(NS(=O)(=O)c2ccc(N3CCCC(c4nnc5ccccn45)C3)c([N+](=O)[O-])c2)CC1 (stereo not drawn)
(4) Cn1c(=O)c2ccc(C(=O)NCc3cc(Cl)ccn3)nc2n(C)c1=O
(5) COc1ccccc1C(=O)N=Nc1c(O)[nH]c2ccc(C)cc12
[in] List the 5 entries from lowest First screening IR (inhibition rate) to highest First screening IR (inhibition rate) value. Reply: labels, ordered per the request.
[out] 1, 2, 4, 3, 5

(I) CN(C)c1nc(N)nc(CSCCOc2ccc(F)cc2)n1
(II) CC(NC(=O)C(C)N1CCCN(Cc2ccc(C#N)cc2)CC1)c1ccccc1 (stereo not drawn)
(III) Cc1nn(CCC#N)c2nc(-c3cccnc3)cc(C(F)(F)F)c12
(IV) Cc1nnc(NC(=O)C2CC(c3cccc(F)c3)=NO2)s1 (stereo not drawn)
(V) FC(F)(F)c1ccnc(Nc2ccc3[nH]ncc3c2)n1
[in] List the 5 entries from lowest First screening IR (inhibition rate) to highest First screening IR (inhibition rate) value. Reply: labels, ordered per the request.
[out] II, I, IV, III, V

(A) Cc1sc2nc(-c3cccc(NC(=O)CN4CCN(CC5CCCO5)CC4)c3)[nH]c(=O)c2c1C (stereo not drawn)
(B) O=C(CSc1n[nH]c(-c2cccs2)n1)Nc1ccc(-c2ccccc2)cc1
[in] # compare First screening IR (inhibition rate) for A vs B ; return the one with the smaller value When you have decided, please share the label of that item.
[out] A

(P) CCc1ccccc1Nc1nc(N)nc(CSCC(=O)c2cc(C)n(C)c2C)n1
(Q) Cc1ccc(C)c(N2C(=O)c3ccc(C(=O)Nc4ccc(N5CCN(C)CC5)cc4C)cc3C2=O)c1
(R) O=C(NCc1nc2ccccc2[nH]1)c1ccc(OCc2ccccc2)cc1
[in] Descending sort on First screening IR (inhibition rate) required. Reply: labels, ordered per the request.
[out] Q, R, P
(Q: 8%, R: 5%, P: -2%)
